The values you see were collected from the supplement of paper PMC10567573.

Entries and their protein stability index
B1: GLTSCR2 (parent)
chain: LARRRRRRQARREAEADKPRRLGR

- Variants of: B1
- Test: protein stability index of a GFP-peptide fusion (GPS, HEK-293T) (PSI 1-6); higher = more stable;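 note: lentivirally expressed fusions sorted by FACS into six bins by GFP to DsRed ratio, PSI derived from sequencing read proportions per bin multiplied by bin number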
- Stated Conditions: c terminus: a fixed tail appended
// keep it numeric: no unit symbol after the value

Worked cases, answers included:
INSERT INTO assay_data (mutation_key, val) VALUES
  ('R8L', 3.48),
  ('E15I', 4.63);

Data request: State the recorded protein stability index for this entry: `R3N`
Data returned: 4.69

Data request: Requested read-out: protein stability index. Entry: `R4N`
Data returned: 4.63

Data request: Looking for the measured protein stability index of `L22Y` , can you help?
Data returned: 4.35
